# System Tested: HIF-2α HIS TAG-PASB Domain (Homo sapiens, UniProt Q99814)
# Construct: 100 nM HIF-2α HIS TAG-PASB Domain
# Sequence (Q99814 240-350 limits assumed): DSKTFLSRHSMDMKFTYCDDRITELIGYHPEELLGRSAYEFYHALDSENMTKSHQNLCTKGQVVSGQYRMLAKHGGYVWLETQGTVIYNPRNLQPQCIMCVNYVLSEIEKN
# Test Name: HIF-2α Scintillation Proximity Assay (SPA)
# Format: binding
# Protocol Conditions: displacement of tritiated probe Compound 183
pIC50: −log10 of the molar value.
Measured pIC50 values are reported for all entries that follow.

Reference set, count: 3
Compound: CS(=O)(=O)c1ccc(OC2CCOCC2)c2c1[C@H](O)C(F)(F)[C@@H]2F [Compound 796]
System Tested: HIF-2α HIS TAG-PASB Domain (Homo sapiens, UniProt Q99814)
Reported Measurement: > 7.30

Compound: O=S(=O)(c1ccc(OC2CCCNC2)c2c1C(O)C(F)(F)C2)C(F)(F)F (stereo not shown) [Compound 797]
System Tested: HIF-2α HIS TAG-PASB Domain (Homo sapiens, UniProt Q99814)
Reported Measurement: < 6.00

Compound: N#Cc1c(Oc2cc(F)cc(Cl)c2)ccc(S(=O)(=O)C(F)(F)F)c1F [Compound 153]
System Tested: HIF-2α HIS TAG-PASB Domain (Homo sapiens, UniProt Q99814)
Reported Measurement: 6.60 to 7.30

Would you kindly look at the next entry?
Record O=S(=O)(c1ccc(OC[C@@H]2CC2(F)F)c2c1[C@H](O)C(F)(F)C2)C(F)(F)F [Compound 728] , field pIC50: > 7.30

====

Measured EC50 values are reported for all entries that follow.
# System: 786-O-Hif-Luc cells
# Test Name: Luciferase assay (HIF responsive element reporter)
# Protocol Conditions: 24 h, read-out: Mean Luciferase EC50 (nM)

Record [2H][C@]1(O)c2c(S(C)(=O)=O)ccc(Oc3cc(F)cc(C#N)c3)c2CC1(F)F , field EC50: < 50 nM

Record CS(=O)(=O)c1ccc(Oc2cc(F)cc(C#N)c2)c2c1C(O)C(F)C2 (centres unmarked) , field EC50: < 50 nM

Record N#Cc1cncc(Oc2ccc(S(=O)(=O)C(F)(F)F)c3c2CC(F)(F)[C@H]3O)c1 , field EC50: < 50 nM

Record CNS(=O)(=O)c1ccc(Oc2cc(F)cc(F)c2)c2c1[C@H](O)C(F)(F)C2 , field EC50: 50 to 249 nM

Record N#Cc1cc(Cl)cc(Oc2ccc(S(=O)(=O)CF)c3c2CC(F)(F)[C@H]3O)c1 , field EC50: < 50 nM
